- RUN DESCRIPTION: Stability in human liver microsomes assessed as half-life at […] preincubated for 5 mins followed by NADPH addition and measured upto 45 mins by LC-MS/MS analysis
- Type: ADME, Microsome
- CONDITIONS: time < 50 min
READOUT TYPE: half-life (min)
Field: numeric (min). Do not append units.

Query block: Entry under review: COc1nc(-c2ccc(NC(=O)Nc3ccc(C(=O)NCCCCCC(=O)Nc4ccccc4N)cc3)cc2)nc(N2CCOCC2)n1 . Reported half-life?
Result block: 30.9

---

pIC50 for assorted molecules
- TEST TARGET: UniProtKB Q13547
- Sequence (Q13547 whole entry): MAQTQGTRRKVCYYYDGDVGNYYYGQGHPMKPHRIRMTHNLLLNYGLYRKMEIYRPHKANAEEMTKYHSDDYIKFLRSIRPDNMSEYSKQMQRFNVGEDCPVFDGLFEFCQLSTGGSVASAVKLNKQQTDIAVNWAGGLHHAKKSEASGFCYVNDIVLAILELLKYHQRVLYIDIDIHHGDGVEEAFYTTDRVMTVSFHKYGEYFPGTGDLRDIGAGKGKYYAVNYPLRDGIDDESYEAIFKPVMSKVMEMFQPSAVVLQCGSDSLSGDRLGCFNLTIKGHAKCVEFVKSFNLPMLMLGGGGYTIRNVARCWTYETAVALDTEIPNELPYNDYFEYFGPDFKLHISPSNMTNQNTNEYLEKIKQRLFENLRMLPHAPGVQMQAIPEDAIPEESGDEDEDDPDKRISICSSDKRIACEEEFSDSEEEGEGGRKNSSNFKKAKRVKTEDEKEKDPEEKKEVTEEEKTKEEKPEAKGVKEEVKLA
pIC50: −log10 of the molar value.

# annotated cases, reported pIC50 shown
COc1nc(-c2ccc(NC(=O)Nc3ccc(C(=O)Nc4ccccc4N)cc3)cc2)nc(N2CCOCC2)n1 = < 5.00
Nc1ccccc1NC(=O)CCCNC(=O)c1ccc(NC(=O)Nc2ccc(-c3nc(N4CCOCC4)nc(N4CCOCC4)n3)cc2)cc1 = < 5.00
Nc1ccccc1NC(=O)c1ccc(NC(=O)Nc2ccc(-c3nc(OC4COC4)nc(N4CCOCC4)n3)cc2)cc1 = < 5.00

Kindly consider the entry below.
Query block: Entry under review: Nc1ccccc1NC(=O)CNC(=O)c1ccc(NC(=O)Nc2ccc(-c3nc(N4CCOCC4)nc(N4CCOCC4)n3)cc2)cc1 . Reported pIC50?
Result block: 5.71
